Assay: HepG2 cell viability effects, profiling panel, calcein-AM fluorescence, 48 h, basal (AID 1164); note: test concentration not given here
Conditions: higher = more signal
property: z-score
# answer = number (no unit)

Record CN(C)CCCCCCNC(=O)[C@H]1C[C@H]2C(=O)N[C@@H](CCCCN)C(=O)N2[C@H]1c1cccc(OCCO)c1 , field z-score: -0.458

Reported z-score of NC(=O)NCC#Cc1ccc2c(c1)[C@]1(C(=O)N2)[C@H](C(N)=O)[C@H]2C(=O)O[C@H](c3ccccc3)[C@H](c3ccccc3)N2[C@@H]1c1ccc(O)cc1 : -0.848

// z-score value for O=C1C[C@@](C(=O)NCCN2CCOCC2)(c2ccc([N+](=O)[O-])cc2)[C@@H](c2ccc(CO)cc2I)N1CC12CC3CC(CC(C3)C1)C2 : -5.11

Every entry's value here was drawn from PubChem BioAssay.
